Reported IC50 by item:
# Target: IDO (Homo sapiens)
# Sequence (P14902 whole entry): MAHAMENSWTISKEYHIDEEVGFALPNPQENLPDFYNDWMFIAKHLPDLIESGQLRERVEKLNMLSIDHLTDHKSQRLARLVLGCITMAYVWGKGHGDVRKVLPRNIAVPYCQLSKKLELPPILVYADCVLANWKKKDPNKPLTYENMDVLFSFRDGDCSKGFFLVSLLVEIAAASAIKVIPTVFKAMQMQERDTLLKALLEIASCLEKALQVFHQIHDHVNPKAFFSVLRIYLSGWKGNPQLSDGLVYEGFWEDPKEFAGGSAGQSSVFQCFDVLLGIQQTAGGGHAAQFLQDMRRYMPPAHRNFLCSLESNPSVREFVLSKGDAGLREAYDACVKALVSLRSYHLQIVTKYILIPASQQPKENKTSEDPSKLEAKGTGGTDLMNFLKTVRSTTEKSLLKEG
# Assay: LLE_IDO_ABS_DR (IDO assay)
Report the figure in nM without appending any unit label.

Below, 6 compounds whose answers are already recorded.
CCN(CC(C)(C)C)c1ccc(-c2ccccc2-c2nnn[nH]2)cc1NC(=O)Nc1ccc(C)cc1 : 40
Cc1ccc(NC(=O)Nc2cc(-c3ccccc3-c3nnn[nH]3)ccc2N(CCC(C)(C)O)Cc2ccc(Cl)cc2)cc1 : 4740
Cc1ccc(NC(=O)Nc2cc(-c3cc(F)ccc3C(=O)O)ccc2N(CCC(C)C(F)(F)F)C2CCCCC2)cc1 (stereo not shown) : 480
Cc1ccc(NC(=O)Nc2cc(-c3ccccc3C(=O)O)ccc2N(Cc2ccccc2)CC(F)F)cc1 : 130
O=C(Nc1cc(-c2ccccc2-c2nnn[nH]2)ccc1N(CCC(F)(F)F)Cc1ccc(Cl)cc1Cl)Nc1ccccc1C(F)(F)F : 1080
CC(C)CN(CC(C)C)c1ccc(-c2ccccc2-c2nnn[nH]2)cc1NC(=O)Nc1ccc(F)cc1F : 5.24

Continue with the next compound.
# input Look up IC50 for this compound: CCCN(Cc1ccccc1)c1ccc(-c2ccccc2C(=O)O)cc1NC(=O)Nc1ccc(C)cc1
# output 20

Ref: patent US9758492B2
